The values you see were collected from patent US9422240B2.

Target: human PHD2 (Homo sapiens (Human), UniProt Q9GZT9)
Sequence (Q9GZT9 whole entry): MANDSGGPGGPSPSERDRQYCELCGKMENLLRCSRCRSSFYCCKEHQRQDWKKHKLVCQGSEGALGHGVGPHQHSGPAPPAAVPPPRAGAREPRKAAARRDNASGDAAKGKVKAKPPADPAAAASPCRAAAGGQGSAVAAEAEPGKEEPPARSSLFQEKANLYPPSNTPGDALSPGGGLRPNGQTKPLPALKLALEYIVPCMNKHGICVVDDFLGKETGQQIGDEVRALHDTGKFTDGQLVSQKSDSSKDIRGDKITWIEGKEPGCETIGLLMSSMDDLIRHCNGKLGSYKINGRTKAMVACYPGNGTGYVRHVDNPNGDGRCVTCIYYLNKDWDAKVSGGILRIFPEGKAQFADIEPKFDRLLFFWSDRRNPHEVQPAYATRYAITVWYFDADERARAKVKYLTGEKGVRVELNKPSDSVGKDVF
Test: Test 2: human PHD2 inhibitory activity, fluorescence polarization assay of HIF-1α peptide proline hydroxylation
Assay type: biochemical
Conditions: test compound's concentration 1 μM; Test 2, fluorescence polarization assay; read-out: Percent inhibition (% at 1 μM)
RECORDED_ENDPOINT: inhibition at 1 µM (%)

O=C(O)CNC(=O)C1=C(O)CCN(C[C@H]2CC[C@@H](Oc3ccc(F)cn3)CC2)C1=O
76
CC1CC(O)=C(C(=O)NCC(=O)O)C(=O)N1Cc1ccc(-c2ccccn2)cc1 (stereo not drawn)
85
O=C(O)CNC(=O)C1=C(O)C[C@@H](c2cccnc2)N(Cc2ccc(OCC3CC3)cc2)C1=O
84
O=C(O)CNC(=O)C1=C(O)CCN(Cc2ccc(-c3ccc(S(=O)(=O)NCCO)cc3)cc2)C1=O
94
Nc1ncc(-c2ccc(CN3CCC(O)=C(C(=O)NCC(=O)O)C3=O)cc2)cn1
92

(A) O=C(O)CNC(=O)C1=C(O)CCN(C[C@H]2CC[C@H](Oc3ccc(C4CC4)cn3)CC2)C1=O
(B) CS(=O)(=O)c1ccc(CN2C(=O)C(C(=O)NCC(=O)O)=C(O)CC23CCCCC3)cc1
Looking at recorded values for inhibition at 1 µM, does A or B come in lower? State the label of the item chosen.
B

(1) O=C(O)CNC(=O)C1=C(O)CC2(CCC2)N(Cc2ccc(-c3ccc(F)cc3)cc2)C1=O
(2) COc1ccc(CN2C(=O)C(C(=O)NCC(=O)O)=C(O)CC2(C)C)c(F)c1
(3) CC1C(O)=C(C(=O)NCCC(=O)O)C(=O)N1Cc1ccc(-c2ccccc2)cc1 (stereo not drawn)
Highest inhibition at 1 µM first, then in falling order down to the smallest. Form field (ranking): labels in requested order.
1, 2, 3
